Test system: wildtype Wnt pathway
Experiment: HEK293 TOP reporter assay, wildtype Wnt pathway stimulated with Wnt-3a
Type: cell-based, human
Settings: HEK293 TOP cells, EC50 concentration of recombinant Wnt-3a, 16 hours; read-out: HEK TOP OncoFlash IC50
observation.type: pIC50
Lab note: report pIC50 as minus log10 of the concentration in molar units, number only.

Test system wildtype Wnt pathway; read-out pIC50; what value for `CN1CCN(CC(=O)Nc2cc(C(=O)Nc3ccc(-c4ccccc4)cn3)ccc2OC(F)(F)F)CC1` ?
7.15

Moving on to C[C@H](C(=O)Nc1cc(C(=O)Nc2ccc(-c3ccc(N(C)C)cc3)nc2)ccc1OC(F)(F)F)N1CCOCC1 (single isomer, unassigned)
7.28

* * *

Recorded measurements of IC50, one per entry
Tested on: HCT116 FOP control reporter cell line
Experiment: HCT116 FOPFlash control reporter assay (FOP control vector, non-functional TCF elements)
Format: cell-based
Conditions: Homo sapiens, HCT-116, 36 h, HCT116 FOP control reporter cells, 36 hours incubation, luciferase expression
Give the value, in units of µM, as a plain number.

In the examples that follow, each entry is paired with its recorded IC50.
> print(dat)
                                   compound                          target.system  observed.value
1  CC(C(=O)Nc1cc(C(=O)Nc2ccc(-c3ccc(O)cc3F)nc2)ccc1OC(F)(F)F)N1CCOCC1 (stereo not shown)  HCT116 FOP control reporter cell line            29.9
2  CN1C2CCC1CN(CC(=O)Nc1cc(C(=O)Nc3ccc(-c4ccccc4F)nc3)ccc1OC(F)(F)F)C2  HCT116 FOP control reporter cell line             3.9

# input for lookup
What value of IC50 has been reported for the following compound? `CN1CCN(CC(=O)Nc2cc(C(=O)Nc3ccc(-c4ccccc4)cn3)ccc2OC(F)(F)F)CC1`
21.8

* * *

Recorded measurements of IC50, one per entry
Tested on: HCT116 FOP control reporter cell line
Experiment: HCT116 FOPFlash control reporter assay (FOP control vector, non-functional TCF elements)
Type: cell-based
Details: Homo sapiens, HCT-116, 36 h, HCT116 FOP control reporter cells, 36 hours incubation, luciferase expression

> print(dat)
                                   molecule                          target.system  observed.value
1  CC1CN(C)CCN1CC(=O)Nc1cc(C(=O)Nc2ccc(-c3ccccc3F)nc2)ccc1OC(F)(F)F (stereo not drawn)  HCT116 FOP control reporter cell line          7.2 µM
2  O=C(CN1CCN(C2CC2)CC1)Nc1cc(C(=O)Nc2ccc(-c3ccccc3F)nc2)ccc1C(F)(F)F  HCT116 FOP control reporter cell line         10.2 µM
3  C[C@@H]1CN(C)CCN1CC(=O)Nc1cc(C(=O)Nc2ccc(-c3ccccc3F)nc2)ccc1OC(F)(F)F  HCT116 FOP control reporter cell line           10 µM
4  COc1ccccc1-c1nnc(NC(=O)c2ccc(OC(F)(F)F)c(NC(=O)CN3CCN(C)CC3)c2)s1  HCT116 FOP control reporter cell line         ≥ 50 µM
5  O=C(CN1CC2CCC(C1)O2)Nc1cc(C(=O)Nc2ccc(-c3ccccc3F)nc2)ccc1C(F)(F)F  HCT116 FOP control reporter cell line          6.5 µM
6  COCc1ccc(C(=O)Nc2nnc(-c3ccccc3C)s2)cc1NC(=O)CN1CCN(C)CC1  HCT116 FOP control reporter cell line           35 µM

Test system HCT116 FOP control reporter cell line; read-out IC50; what value for `Cn1nc(C(=O)Nc2ccc(OC(F)(F)F)c(NC(=O)CN3CCOCC3)c2)cc1-c1ccccc1` ?
≥ 50 µM

Moving on to `COc1ccc(NC(=O)c2ncc(-c3ccccc3)s2)cc1NC(=O)CN1CCOCC1`
≥ 50 µM

Moving on to `O=C(CN1CCN(C2CC2)CC1)Nc1cc(C(=O)Nc2nnc(-c3ccccc3)s2)ccc1OCC1CC1`
≥ 50 µM

* * *

System: HCT116 FOP control reporter cell line
Test: HCT116 FOPFlash control reporter assay (FOP control vector, non-functional TCF elements)
Type: cell-based
Settings: Homo sapiens, HCT-116, 36 h, HCT116 FOP control reporter cells, 36 hours incubation, luciferase expression
pIC50: −log10 of the molar value.
observation.type: pIC50

> print(dat)
                                   molecule  observed.value
1  COc1ccc(NC(=O)c2ccc(-c3ccccc3)nc2)cc1NC(=O)CN1CCOCC1 [Example 34]          ≤ 4.30
2  CN1CCN(CC(=O)Nc2cc(C(=O)Nc3nnc(-c4ccccc4)s3)ccc2C#N)CC1 [Example 174]          ≤ 4.30
3  Cc1ccccc1-c1nnc(NC(=O)c2ccc(OC(F)(F)F)c(NC(=O)CN3CCN(C)CC3)c2)s1 [Example 144]          ≤ 4.30
4  CC(C(=O)Nc1cc(C(=O)Nc2ccc(-c3cc(F)cc(F)c3)nc2)ccc1OC(F)(F)F)N1C[C@@H]2C[C@H]1CO2 (stereo partly shown) [Example 223]            4.77

Test system HCT116 FOP control reporter cell line; read-out pIC50; what value for O=C(CN1CCOCC1)Nc1cc(C(=O)Nc2nnc(-c3ccccc3)s2)ccc1OC(F)F [Example 239] ?
≤ 4.30

Moving on to O=C(CN1CCOCC1)Nc1cc(C(=O)Nc2nnc(-c3ccccc3F)s2)ccc1OC(F)(F)F [Example 127]
≤ 4.30

Moving on to COc1ccc(NC(=O)c2ccc(-c3ccccc3F)nc2)cc1NC(=O)C1(N2CCOCC2)CC1 [Example 62]
≤ 4.30

Moving on to Nc1ccc(-c2ccc(NC(=O)c3ccc(OC(F)(F)F)c(NC(=O)CN4CCOCC4)c3)cn2)cc1 [Example 126]
≤ 4.30

Moving on to CC(C(=O)Nc1cc(C(=O)Nc2ccc(-c3cccc(F)c3)nc2)ccc1OC(F)(F)F)N1CCOCC1 (stereo not shown) [Example 182]
4.36

* * *

Recorded measurements of pIC50, one per entry
System: HCT116 FOP control reporter cell line
Test: HCT116 FOPFlash control reporter assay (FOP control vector, non-functional TCF elements)
Type: cell-based
Details: Homo sapiens, HCT-116, 36 h, HCT116 FOP control reporter cells, 36 hours incubation, luciferase expression
Lab note: report pIC50 as minus log10 of the concentration in molar units, number only.

In the examples that follow, each entry is paired with its recorded pIC50.
> print(dat)
                                   compound  observed.value
1  CS(=O)(=O)c1ccc(C(=O)Nc2ccc(-c3ccccc3F)nc2)cc1NC(=O)CN1CCOCC1 [Example 139]            4.60
2  CN1CCN(CC(=O)Nc2cc(C(=O)Nc3nnc(-c4ccc(F)cc4)s3)ccc2OC(F)(F)F)CC1 [Example 149]            4.32
3  O=C(CN1CCOCC1)Nc1cc(C(=O)Nc2ccc(-c3ccccc3F)nc2)ccc1OC(F)F [Example 237]            4.89

# input for lookup
What value of pIC50 has been reported for the following compound? COCCNC(=O)c1ccc(C(=O)Nc2nnc(-c3ccccc3)s2)cc1NC(=O)CN1CCN(C)CC1 [Example 155]
4.49

* * *

Recorded measurements of IC50, one per entry
Tested on: HCT116 FOP control reporter cell line
Experiment: HCT116 FOPFlash control reporter assay (FOP control vector, non-functional TCF elements)
Format: cell-based
Details: Homo sapiens, HCT-116, 36 h, HCT116 FOP control reporter cells, 36 hours incubation, luciferase expression

In the examples that follow, each entry is paired with its recorded IC50.
> print(dat)
                                   molecule  observed.value
1  CC(C(=O)Nc1cc(NC(=O)c2ccc(-c3cc(F)cc(F)c3)nc2)ccc1OC(F)(F)F)N1C[C@@H]2C[C@H]1CO2 (stereo partly shown) [Example 198]           15 µM
2  O=C(CN1CCOCC1)Nc1cc(C(=O)Nc2nnc(-c3ccccc3)s2)ccc1OCC1CC1 [Example 268]         ≥ 50 µM
3  CC(C(=O)Nc1cc(C(=O)Nc2nnc(-c3ccccc3)s2)ccc1CS(C)(=O)=O)N1CCOCC1 (stereo not shown) [Example 87]           48 µM
4  O=C(CN1CCOCC1)Nc1cc(C(=O)Nc2nnc(-c3cccc(Cl)c3)s2)ccc1OC(F)(F)F [Example 154]         ≥ 50 µM
5  O=C(CN1CCOCC1)Nc1cc(C(=O)Nc2ncc(-c3ccccc3)s2)ccc1C(F)(F)F [Example 12]         ≥ 50 µM

Test system HCT116 FOP control reporter cell line; read-out IC50; what value for COc1ccc(C(=O)Nc2ccc(-c3ccccc3)nc2)cc1NC(=O)C1(N2CCOCC2)CC1 [Example 81] ?
≥ 50 µM

Moving on to COc1ccc(NC(=O)c2ccc(-c3ccccc3)nc2)cc1NC(=O)C1(N2CCOCC2)CC1 [Example 256]
≥ 50 µM

Moving on to O=C(CN1CCOCC1)Nc1cc(NC(=O)c2cc(-c3ccccc3)[nH]n2)ccc1OC(F)(F)F [Example 124]
≥ 50 µM

Moving on to Cc1ccccc1-c1nnc(NC(=O)c2ccc(OC3CC3)c(NC(=O)CN3CCOCC3)c2)s1 [Example 266]
≥ 50 µM

Where do these numbers come from? They come from patent US10130633B2.
